The following binders are listed with their measured EC50 values.
Biological target: T1, c-Met (HGF receptor) expressed on cells (human, UniProt P08581 25-1390)
T1 construct: whole, on cells; Endogenous c-Met on tumour cell lines and on human umbilical vein endothelial cells
T1 sequence (P08581 25-1390): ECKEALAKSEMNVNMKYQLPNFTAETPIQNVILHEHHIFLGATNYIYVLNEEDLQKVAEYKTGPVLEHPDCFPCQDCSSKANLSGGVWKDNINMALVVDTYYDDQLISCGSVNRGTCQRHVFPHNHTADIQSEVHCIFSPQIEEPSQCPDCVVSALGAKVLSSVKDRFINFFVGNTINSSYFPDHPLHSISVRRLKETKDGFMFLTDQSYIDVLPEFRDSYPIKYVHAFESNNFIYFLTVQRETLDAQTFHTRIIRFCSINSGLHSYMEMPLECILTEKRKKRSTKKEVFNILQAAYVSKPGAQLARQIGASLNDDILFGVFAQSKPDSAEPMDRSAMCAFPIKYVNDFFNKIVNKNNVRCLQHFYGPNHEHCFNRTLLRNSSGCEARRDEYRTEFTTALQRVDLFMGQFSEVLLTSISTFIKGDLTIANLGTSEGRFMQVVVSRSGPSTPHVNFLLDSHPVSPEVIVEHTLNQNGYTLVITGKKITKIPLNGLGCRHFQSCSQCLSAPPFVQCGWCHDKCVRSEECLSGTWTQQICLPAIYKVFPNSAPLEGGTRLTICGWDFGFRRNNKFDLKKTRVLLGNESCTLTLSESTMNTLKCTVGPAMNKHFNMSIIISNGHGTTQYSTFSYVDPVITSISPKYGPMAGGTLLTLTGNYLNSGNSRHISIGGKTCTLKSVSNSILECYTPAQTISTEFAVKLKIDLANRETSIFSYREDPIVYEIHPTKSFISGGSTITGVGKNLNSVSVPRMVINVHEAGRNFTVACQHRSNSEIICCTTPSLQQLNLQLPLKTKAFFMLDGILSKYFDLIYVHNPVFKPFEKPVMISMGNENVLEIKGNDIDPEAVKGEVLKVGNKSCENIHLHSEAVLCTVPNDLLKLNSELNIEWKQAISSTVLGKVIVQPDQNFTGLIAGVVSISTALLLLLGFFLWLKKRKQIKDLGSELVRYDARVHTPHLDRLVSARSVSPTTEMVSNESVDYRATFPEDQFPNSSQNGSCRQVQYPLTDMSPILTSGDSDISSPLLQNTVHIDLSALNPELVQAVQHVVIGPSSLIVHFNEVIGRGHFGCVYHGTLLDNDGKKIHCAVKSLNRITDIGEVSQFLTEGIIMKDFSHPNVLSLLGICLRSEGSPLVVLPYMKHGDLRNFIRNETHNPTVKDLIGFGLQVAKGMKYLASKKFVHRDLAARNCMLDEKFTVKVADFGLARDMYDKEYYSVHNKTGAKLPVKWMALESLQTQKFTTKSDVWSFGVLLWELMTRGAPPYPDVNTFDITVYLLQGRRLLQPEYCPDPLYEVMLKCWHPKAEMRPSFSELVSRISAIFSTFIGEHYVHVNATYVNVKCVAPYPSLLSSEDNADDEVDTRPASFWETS
Experiment: flow cytometry, antibody titration on DU-145 prostate cancer cells, PE anti-human IgG
Only the number, expressed in nM, is required.

Take a look at these entries with their results.
# BINDER, EC50 (nM)
rows = [
    ("El-B11 (E1 derived anti-c-Met antibody) (antibody, V domains shown, Label 'El-B11' matched to 'GCE-B11' by suffix only; Detected with anti-human IgG; also called E1-B11; GCE-B11) VH: QVQLVQSGAEVKKPGASVKVSCKASGYTFSGDYIHWVRQAPGQGLEWMGWINPNSGGTNYAQKFQGRVTMTRDTSISTAYMELSRLRSDDTAVYYCAREPARDYYYYDGLDVWGQGTTVTVSS VL: QSVVTQPPSVSGAPGQRVTISCIGSSSNIGAGYDVHWYQQLPGTAPKLLIYGNSNRISGVPDRFSGSKSGTSASLAITGLQAEDEADYYCQSYSSSLSAVLFGTGTKVTVL", 0.34),
    ("El-B19 (E1 derived anti-c-Met antibody) (antibody, V domains shown, Label 'El-B19' matched to 'GCE-B19' by suffix only; Detected with anti-human IgG; also called E1-B19; GCE-B19) VH: QVQLVQSGAEVKKPGASVKVSCKASGFTFSGDYIHWVRQAPGQGLEWMGWINPNSGGTNYAQKFQGRVTMTRDTSISTAYMELSRLRSDDTAVYYCAREPGRDYYYYDGLDVWGQGTTVTVSS VL: QSVVTQPPSVSGAPGQRVTISCLGSASNIGAGHDVHWYQQLPGTAPKLLIYGNSNRPSGVPDRFSGSKSGTSASLAITGLQAEDEADYYCQSYSSSLSAVLFGTGTKVTVL", 3.35),
    ("El-BR1 (E1 derived anti-c-Met antibody) (antibody, V domains shown, Label 'El-BR1' matched to 'GCE-BR1' by suffix only; Detected with anti-human IgG; also called E1-BR1; GCE-BR1) VH: QVQLVQSGAEVKKPGASVKVSCKASGSTFSGDYLHWVRQAPGQGLEWMGWINPNSGGTNYAQKFQGRVTMTRDTSISTAYMELSRLRSDDTAVYYCAREPARDYYYYDGLDVWGQGTTVTVSS VL: QSVVTQPPSVSGAPGQRVTISCLGSASNIGAGYDVHWYQQLPGTAPKLLIYGNSNRPSGVPDRFSGSKSGTSASLAITGLQAEDEADYYCQSYSSSLSAVLFGTGTKVTVL", 3.36),
]

// El-A14 (E1 derived anti-c-Met antibody) (antibody, V domains shown, Label 'El-A14' matched to 'GCE-A14' by suffix only; Detected with anti-human IgG; also called E1-A14; GCE-A14) VH: QVQLVQSGAEVKKPGASVKVSCKASGYTFSGDYIHWVRQAPGQGLEWMGWINPNSGGTNYAQKFQGRVTMTRDTSISTAYMELSRLRSDDTAVYYCAREPARDYYYYDGLDVWGQGTTVTVSS VL: QSVVTQPPSVSGAPGQRVTISCIGSSSNIGAGHDVHWYQQLPGTAPKLLIYGNSNRPSGVPDRFSGSKSGTSASLAITGLQAEDEADYYCQSYSSSLSAYVFGTGTKVTVL : EC50 value = 0.212
